assay_details: recombinant barcode read abundance after kanamycin selection (control-corrected) (log10(CPM+1)); higher = more efficient recombination; sequences stand for … in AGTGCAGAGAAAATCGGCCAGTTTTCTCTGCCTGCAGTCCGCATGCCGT…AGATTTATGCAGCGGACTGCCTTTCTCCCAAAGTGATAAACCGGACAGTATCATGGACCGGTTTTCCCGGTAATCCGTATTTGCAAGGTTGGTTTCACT; site = the 11-nt target
Label Satisfied when recombinant barcode read abundance (log10) is at or above 0.06; otherwise label Not satisfied.

sequence_data | group
CCGCGGCCTTGGGTTCTAACCTGTTGCCT (site ACGCGGCCTAG) | Not satisfied

Does recombinant barcode read abundance (log10) meet or surpass 0.06 for GAGCCTCCTTGGGTTCTAACCTGTTGCAT (site ACCAGGACTCG) ? Satisfied

Does TAGGCGCCTTGGGTTCTAACCTGTTGCCT (site TAGGCGCCTAC) have a reported recombinant barcode read abundance (log10) of at least 0.06? Not satisfied

Test whether the sequence CAATACACTTGGGTTCTAACCTGTTGCCT (site CAATACACTAG) records recombinant barcode read abundance (log10) of 0.06 or higher. Satisfied

Dear colleague, could you confirm whether TCCTTAGCTTGGGTTCTAACCTGTTGCCG (site TCCTGAGCTCA) has recombinant barcode read abundance (log10) at or above 0.06? Satisfied

###

assay_details: recombinant barcode read abundance after kanamycin selection (control-corrected) (log10(CPM+1)); higher = more efficient recombination; sequences stand for … in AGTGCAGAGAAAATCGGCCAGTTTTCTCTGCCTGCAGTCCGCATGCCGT…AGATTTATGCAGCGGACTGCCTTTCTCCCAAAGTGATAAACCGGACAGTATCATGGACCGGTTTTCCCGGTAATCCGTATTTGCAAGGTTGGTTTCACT; site = the 11-nt target
Lab note: compare recombinant barcode read abundance (log10) against 0.4. Equal or greater, write True. Smaller, write False.

Worked examples, 3 sequences total:
sequence_data | group
GGGATGGCTTGGGTTCTAACCTGTTGCCT (site GGGATGGCTAG) | True
GATAGTCCTTGGGTTCTAACCTGTTGCCT (site GATAGTCCTAG) | False
CCGGATGCTTGGGTTCTAACCTGTTGCCT (site CCGAATGCTAG) | False

hey, is recombinant barcode read abundance (log10) for this one >= 0.4? GACACAACTTGGGTTCTAACCTGTTGCGG (site GACACAACTCC) True

Test whether the sequence TCCTATCCTTGGGTTCTAACCTGTTGCGA (site TCCTATCCTTC) records recombinant barcode read abundance (log10) of 0.4 or higher. True

Is it the case that TGGTGTCCTTGGGTTCTAACCTGTTGCCA (site TCGAGTCCTTG) has recombinant barcode read abundance (log10) reaching or exceeding 0.4? False

// inclusive: recombinant barcode read abundance (log10) at least 0.4? input: AATAAGTCTTGGGTTCTAACCTGTTGCAT (site CTCGCTCCTCA) False

Decide: recombinant barcode read abundance (log10) of TGCGCCACTTGGGTTCTAACCTGTTGCCT (site TGCGCTACTAG) >= 0.4? False

###

assay_details: recombinant barcode read abundance after kanamycin selection (control-corrected) (log10(CPM+1)); higher = more efficient recombination; sequences stand for … in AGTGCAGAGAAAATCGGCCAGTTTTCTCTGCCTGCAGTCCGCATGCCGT…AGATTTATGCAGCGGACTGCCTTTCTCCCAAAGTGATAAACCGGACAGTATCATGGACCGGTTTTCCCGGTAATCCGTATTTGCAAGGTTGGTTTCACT; site = the 11-nt target
Classify on recombinant barcode read abundance (log10) using b0: < 0.1; b1: ≥ 0.1 and < 1; b2: ≥ 1

Worked cases, answers included:
sequence_data | group
CTCAGACCTTGGGTTCTAACCTGTTGCTG (site CTCAGACCTCA) | b0
AGACTCTCTTGGGTTCTAACCTGTTGCCT (site AGACTCTCTAG) | b2
TAGCGGCCTTGGGTTCTAACCTGTTGCCT (site TACCGGCCTAG) | b0
CCACCGTCTTGGGTTCTAACCTGTTGCCT (site CCACTGTCTAG) | b1
ACCCAAGCTTGGGTTCTAACCTGTTGCCT (site ACCCAAACTAG) | b2
TCACAGCCTTGGGTTCTAACCTGTTGCTG (site TCATAGCCTCA) | b1
CTTGAATCTTGGGTTCTAACCTGTTGCCT (site CTTTAATCTAG) | b1
TACCGGACTTGGGTTCTAACCTGTTGCCT (site TACCAGACTAG) | b1

Which category does the recorded recombinant barcode read abundance (log10) put AAGTCCTCTTGGGTTCTAACCTGTTGCTG (site CTAAGGCCTAT) in? b1

Band of ACCAGGACTTGGGTTCTAACCTGTTGCCG (site ACCAGGACTCG) ? b2

Place this sequence in its band: ACGAGGACTTGGGTTCTAACCTGTTGCCG (site ACGAGGACTCG) b2

Which bin should I file ATGGTCACTTGGGTTCTAACCTGTTGCCT (site ATGGTCACTAG) under? b2

Band for the recorded recombinant barcode read abundance (log10) of AGCCCTCCTTGGGTTCTAACCTGTTGCTT (site AGCCCTCCTTA) ? b0

Bin this entry: AGCCTGACTTGGGTTCTAACCTGTTGCCT (site AGCCTGTCTAG) b0

Which class does CTCCGAGCTTGGGTTCTAACCTGTTGCTA (site CTCCTAGCTAA) fall in? b0

Returns: class label. Input: TGTGACACTTGGGTTCTAACCTGTTGCAA (site AACAGGCCTAG) b1

Note: place this sequence into its band. Item: GTAGGGTCTTGGGTTCTAACCTGTTGCCT (site GTAGGGTCTAG) b2

# bin lookup: classify CCAGGTCCTTGGGTTCTAACCTGTTGCAT (site CCAGGTCCTAT) by its recombinant barcode read abundance (log10) b2

Consider GTGTCACCTTGGGTTCTAACCTGTTGCCT (site GTGTCACCTAG) . To which recombinant barcode read abundance (log10) class does it belong? b2

Exam item: assign ACAAGCCCTTGGGTTCTAACCTGTTGCCT (site ATAAGCCCTAG) to the correct category. b0

Just checking, what class would you give AGAGAGTCTTGGGTTCTAACCTGTTGCCT (site AGAGAGTCTAG) here? b2

Record TCGCCTGCTTGGGTTCTAACCTGTTGCCT (site TCGCCTGCTAG) — which class? b1

###

assay_details: recombinant UMI read abundance after kanamycin selection (control-corrected) (log10(CPM+1)); higher = more efficient recombination; extreme values may be limits of the assay; sequences stand for … in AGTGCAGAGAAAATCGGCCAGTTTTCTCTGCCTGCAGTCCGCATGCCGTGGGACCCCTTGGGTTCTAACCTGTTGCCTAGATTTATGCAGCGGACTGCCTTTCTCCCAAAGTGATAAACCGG…AGGTTGGTTTCACT; site = the 11-nt donor
Catalogue of sequences with associated recombinant UMI read abundance (log10)
# print the numeric value only

Look over these answered cases.
sequence_data | recombinant UMI read abundance (log10)
ACCTCGACATGGACCGGTTTTCCCGGTAATCCGTATTTGGG (site ACCTTGACTCC) | 0
AGGAGTGCATGGACCGGTTTTCCCGGTAATCCGTATTTGAG (site AGGAGTGCTCT) | 2.37
GGTCCATCATGGACCGGTTTTCCCGGTAATCCGTATTTGTA (site GGTCCATCTTA) | 0.459
GAGGCACCATGGACCGGTTTTCCCGGTAATCCGTATTTGCA (site GTGGCACCTTG) | 0
AAGATTTCATGGACCGGTTTTCCCGGTAATCCGTATTTGGA (site AAGATTTCTTC) | 2.1

Hello, please tell me recorded recombinant UMI read abundance (log10) for this one: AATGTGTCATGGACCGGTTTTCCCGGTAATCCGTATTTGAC (site ATTGTGTCTGT) 0.71

Give the value of recombinant UMI read abundance (log10) reported for the following: CTAGTAACATGGACCGGTTTTCCCGGTAATCCGTATTTGAC (site CTAGTAACTGT) 3.1

State its recombinant UMI read abundance (log10) for this sequence: ATAAGGACATGGACCGGTTTTCCCGGTAATCCGTATTTGAC (site ATAAGGGCTGT) 2.31

Return the recorded recombinant UMI read abundance (log10) value; entry: AACCCTCCATGGACCGGTTTTCCCGGTAATCCGTATTTGAT (site AACCCTCCTAT) 0.115

###

assay_details: recombinant barcode read abundance after kanamycin selection (control-corrected) (log10(CPM+1)); higher = more efficient recombination; sequences stand for … in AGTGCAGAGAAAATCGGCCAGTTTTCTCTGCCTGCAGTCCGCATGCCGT…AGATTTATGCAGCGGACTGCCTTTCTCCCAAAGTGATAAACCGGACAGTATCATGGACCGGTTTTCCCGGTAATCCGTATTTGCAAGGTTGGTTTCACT; site = the 11-nt target
property_name: recombinant barcode read abundance (log10)
When you answer, write just the number.

Below, each entry is followed by its recorded recombinant barcode read abundance (log10) result.
sequence_data | readout_value
TAGGATACTTGGGTTCTAACCTGTTGCAG (site TAGGATACTCT) | 2.5
TACTTACCTTGGGTTCTAACCTGTTGCCT (site TTCTTACCTAG) | 0.0922
GCGTATCCTTGGGTTCTAACCTGTTGCCT (site GCGAATCCTAG) | 0.127

Indicate the recorded recombinant barcode read abundance (log10) value for this sequence: CTGGCGTCTTGGGTTCTAACCTGTTGCCT (site CTGGAGTCTAG) 0.263

Please indicate recombinant barcode read abundance (log10) recorded for ACCTCAACTTGGGTTCTAACCTGTTGCCT (site ACTTCAACTAG) 0.215

Return value of recombinant barcode read abundance (log10) for input GGCGATCCTTGGGTTCTAACCTGTTGCCT (site GGCGATCCTAG) , no commentary. 1.15

Retrieve recombinant barcode read abundance (log10) measured for GAACCACCTTGGGTTCTAACCTGTTGCCT (site GAACCACCTAG) and print it. 1.75
